Test: caspase-8 TRAIL sensitization, hit retest, confirmation, cell-based, NB7+caspase-8, with/without TRAIL, luminescence panel (AID 651596)
Settings: NB7 neuroblastoma + caspase-8, without TRAIL, luminescence viability, without TRAIL, mean of runs, at 10 µM
Response field label: string, one of 1 (yes) (activity strictly below 90%) or 0 (no).

A record lists `O=C1[C@H]2[C@@H](/C=C/c3ccccc3)N3C(=O)CN(CC4CC4)C(=O)[C@@]3(Cc3ccccc3)[C@H]2C(=O)N1c1ccccc1` . Is its activity below 90%?
0 (no)

A record lists `Cc1ccccc1-c1nc2sc3c(c2c(=O)n1N)CCCC3` . Is its activity below 90%?
1 (yes)

A record lists `CCCc1ccc(-c2cc(C(=O)Nc3ccc([N+](=O)[O-])cn3)c3ccccc3n2)cc1` . Is its activity below 90%?
1 (yes)

A record lists `NC(N)=N/N=C/c1ccc(OCc2ccc(Cl)cc2Cl)cc1` . Is its activity below 90%?
0 (no)

---

Assignment: determine reported inhibition for the given compounds.
Assay: inhibitors of PAF-induced NFkB signaling in CF airway cells, dose response, cell-based, uHTS hits, panel, cytotoxicity readout (AID 624344)
Conditions: CF bronchial epithelial cells, PAF-induced NFkB reporter inhibition, with PAF, run 2; at 79 µM (top of the series) unless noted
Supply the numeric figure in %, leaving out any unit text.

Lab note: measured inhibition of `Cc1ccc(S(=O)(=O)/N=C(\CCl)N2CCOCC2)cc1` was 102

Lab note: measured inhibition of COc1ccc2[nH]c3c(c2c1)CC(C)NC3=O (stereo not drawn) was 112

Lab note: measured inhibition of `COc1ccc(NC(=O)c2cc3c(-c4ccc(OC)c(OC)c4)nn(C)c3s2)cc1OC` was 101

Lab note: measured inhibition of `CCOC(=O)Nc1nc(-c2ccccc2)c(C(=O)c2ccccc2)s1` was 78.8

Lab note: measured inhibition of `COc1ccccc1Cn1c(=O)c2ccccc2n2c(Sc3ncnc4sccc34)nnc12` was 113

Lab note: measured inhibition of `CC(=O)Oc1ccccc1C(=O)Oc1ccc(/C=N/n2cnnc2)cc1` was 105

Lab note: measured inhibition of `O=[N+]([O-])c1ccc2ncnc(N3CCN(Cc4ccc5c(c4)OCO5)CC3)c2c1` was 91.3

Lab note: measured inhibition of `CCCCNc1c(-c2cccc(-c3ccc(OC)cc3)c2)nc2ccc(C)cn12` was 107

Lab note: measured inhibition of `CCn1c(Oc2ccccc2F)nc2c1c(=O)n(C)c(=O)n2C` was 96.5

Lab note: measured inhibition of `C[C@H](CO)N1C[C@H](C)[C@@H](CN(C)C(=O)Nc2ccc3c(c2)OCO3)Oc2c(NC(=O)Nc3ccc(C(F)(F)F)cc3)cccc2C1=O` was 105

Lab note: measured inhibition of `CCOC(=O)c1sc(NC(=O)c2cccc(S(=O)(=O)N3CCc4ccccc43)c2)c(C#N)c1C` was 80.5

Lab note: measured inhibition of `CN(c1ncnc(N)c1[N+](=O)[O-])C1CCCCC1` was 102

Lab note: measured inhibition of `C=CCn1cnc2c(c1=O)c1nc3ccccc3nc1n2/N=C/c1cc(OC)c(OC)c(OC)c1` was 102

Lab note: measured inhibition of `Cn1c(N2CCN(C(c3ccccc3)c3ccccc3)CC2)nc2c1c(=O)[nH]c(=O)n2C` was 104

Lab note: measured inhibition of `O=C(Nc1ccc(N2CCN(C(=O)c3ccccc3F)CC2)cc1)c1cncc(Br)c1` was 99.6

Lab note: measured inhibition of `C=CC[C@]12CC=CC(=O)[C@@]1(O)O[C@H](c1ccc(OC)c(OC)c1)[C@H]2C` was 87.5

Lab note: measured inhibition of `Cc1c(C=O)c(C=O)c(C)n1Cc1ccccc1` was 103

Lab note: measured inhibition of `CCOC(=O)c1ccc(-n2[nH]c(-c3ccccc3)cc2=O)cc1` was 93.3

Lab note: measured inhibition of `Cc1ccc2c(c1)C(=O)C(=O)N2Cc1ccc(Br)cc1` was 113

Lab note: measured inhibition of `COc1cccc(NC(=O)CN(C)CC(=O)Nc2ccc(C)c([N+](=O)[O-])c2)c1` was 101

Lab note: measured inhibition of `CC(=O)c1c(C)n(-c2ccccc2)c2ccc(O)cc12` was 91.5

Lab note: measured inhibition of `Cn1cccc1C(=O)NC(=O)COC(=O)c1ccc(S(C)(=O)=O)c([N+](=O)[O-])c1` was 98.1

Lab note: measured inhibition of CC1C(=O)N(Cc2cn(Cc3ccco3)nn2)CCS(=O)(=O)N1Cc1ccc(-c2ccccc2C(F)(F)F)cc1 (stereo not drawn) was 114

Lab note: measured inhibition of `C[C@@H]1CN([C@H](C)CO)C(=O)c2cc(NC(=O)Nc3ccc(C(F)(F)F)cc3)ccc2O[C@H]1CN(C)S(=O)(=O)c1ccccc1` was 110

Lab note: measured inhibition of `CC(=O)OCCN1c2ccccc2Sc2cnccc21` was 109

Lab note: measured inhibition of `CCCCCCc1cc2cc(C(=O)Nc3ccccc3OC)c(=O)oc2cc1O` was 66.2

Lab note: measured inhibition of COc1ccc(-n2cc(-c3ccccc3)c3c(N4CC(C)OC(C)C4)ncnc32)cc1 (stereo not drawn) was 102

Lab note: measured inhibition of CN(c1ncnc(N)c1[N+](=O)[O-])C1CCS(=O)(=O)C1 (stereo not drawn) was 104

Lab note: measured inhibition of `OCCN1CCN(c2ncnc3ccc(Br)cc23)CC1` was 107

Lab note: measured inhibition of Cc1ccc(C(C(=O)NCc2ccccc2)N(Cc2cccs2)C(=O)c2ccc3c(c2)OCCO3)cc1 (stereo not drawn) was 98.3

Lab note: measured inhibition of COc1cc2c(c(OC)c1OC)-c1ccc(SC)c(=O)cc1C(NC(=O)C(F)(F)F)CC2 (stereo not drawn) was 79

Lab note: measured inhibition of COc1ccc(S(=O)(=O)N2c3cc(C)ccc3OCC2C(C)(C)C)cc1 (stereo not drawn) was 81.9

Lab note: measured inhibition of `Cc1nn(-c2ccccc2)c(N2CCCC2)c1/C=N/NC(=O)c1cc(-c2ccccc2)nc2ccccc12` was 80

---

Target: Sentrin-specific protease 7 (Homo sapiens) (UniProt Q9BQF6)
Sequence (Q9BQF6 706-1050 limits assumed): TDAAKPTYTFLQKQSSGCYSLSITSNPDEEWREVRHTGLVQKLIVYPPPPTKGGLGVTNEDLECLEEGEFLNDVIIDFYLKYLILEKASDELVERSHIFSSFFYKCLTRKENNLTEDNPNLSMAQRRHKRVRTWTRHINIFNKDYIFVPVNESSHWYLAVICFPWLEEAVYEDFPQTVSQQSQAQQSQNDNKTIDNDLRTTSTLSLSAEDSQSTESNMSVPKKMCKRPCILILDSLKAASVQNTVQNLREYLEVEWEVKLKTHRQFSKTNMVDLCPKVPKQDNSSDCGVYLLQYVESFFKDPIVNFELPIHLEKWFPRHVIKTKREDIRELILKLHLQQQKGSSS
Test: SENP7 protease inhibitors, retest, confirmation, biochemical, luminescence, single concentration (AID 488917)
Conditions: recombinant SENP7, Z-RLRGG-aminoluciferin luminescence, 40 min; at 12.5 µM
The other results are listed elsewhere or left out. Calls of active or inactive are those of the source.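 Rule for the calls: active = mean inhibition above about 50% in the one-dose retest (limit read from the data); inactive = the rest.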
Please answer using one outcome listed in 1 for active, -1 for inactive

Which outcome was entered for the compound `COCCN(CCOC)c1nc(N)c2c(N)nc3c(c2c1C#N)CC(=O)N3Cc1ccc(Cl)cc1` in this test?
-1

Which outcome was entered for the compound `CC(=O)Nc1cccc(-c2csc(Nc3cccc(C)n3)n2)c1` in this test?
1

Which outcome was entered for the compound `O=[N+]([O-])c1ccccc1N/N=C1\CCc2ccccc21` in this test?
-1

Which outcome was entered for the compound `O=c1oc2cc(O)ccc2cc1-c1ccc(F)cc1` in this test?
1

Which outcome was entered for the compound `Cc1[nH][nH]c(=O)c1C(c1ccc(-c2ccc(Cl)cc2)o1)c1c(C)[nH][nH]c1=O` in this test?
-1

Which outcome was entered for the compound `O=C(CSC(=S)N1CCOCC1)c1ccccc1` in this test?
1

Which outcome was entered for the compound `O=C(COc1ccc2oc3c(c2c1)CCCC3)Nc1ccccn1` in this test?
-1

Which outcome was entered for the compound `CSc1ccccc1NC(=O)c1cc(C2CC2)on1` in this test?
1

Which outcome was entered for the compound `CCOc1ccc(C(=O)Nc2cccc(SC)c2)cc1` in this test?
1

Which outcome was entered for the compound `CC(=O)Oc1ccc2c(=O)oc(-c3ccc([N+](=O)[O-])cc3)nc2c1` in this test?
-1

Which outcome was entered for the compound `Cc1nonc1C(=O)N/N=C/c1ccc(O)cc1` in this test?
1

Which outcome was entered for the compound `COc1cc(C#Cc2ccc3cc(CCCO)oc(=O)c3c2)cc(OC)c1` in this test?
1

Which outcome was entered for the compound `O=C(Nc1ccccc1)c1ccc2c(c1)OCCCO2` in this test?
1

Which outcome was entered for the compound `Brc1ccccc1C1Nc2cccc3cccc(c23)N1` in this test?
-1

Which outcome was entered for the compound `Cc1ccc(/C=N/NC(=O)c2cc3ccccc3cc2O)o1` in this test?
1

Which outcome was entered for the compound `O=C(ON=C1CCN(S(=O)(=O)c2ccccc2)CC1)c1ccc(Cl)cc1` in this test?
-1

Which outcome was entered for the compound `Cc1c(C(=O)Nc2ccccn2)oc2ccc(Br)cc12` in this test?
-1

Which outcome was entered for the compound `CCSc1nnc(NC(=O)c2ccc(C)cc2)s1` in this test?
1

Which outcome was entered for the compound `O=C(Nc1sc2c(c1C(=O)O)CCC2)c1ccccc1F` in this test?
1

---

Experiment: caspase-8 TRAIL sensitization, hit retest, confirmation, cell-based, NB7+caspase-8, with/without TRAIL, luminescence panel (AID 651596)
Settings: NB7 neuroblastoma + caspase-8, without TRAIL, luminescence viability, without TRAIL, mean of runs, at 10 µM
REPORTED METRIC: activity (%)
Supply the numeric figure in %, leaving out any unit text.

Lab note: measured activity of `Cc1cccc(-n2ncc(Cl)c(Cl)c2=O)c1` was 99.7

Lab note: measured activity of `Cc1ccc(Cl)cc1N1CCN(C(=O)c2noc(C)c2[N+](=O)[O-])CC1` was 97.1

Lab note: measured activity of `CCOc1ccc2nc(NC(=O)c3cccc(-c4cc5ccccc5oc4=O)c3)sc2c1` was 31.1

Lab note: measured activity of `COc1ccc(NC(=O)c2ccccn2)cc1` was 69.8

Lab note: measured activity of `Cc1cc(NC(=O)c2cncc(Br)c2)ccc1NC(=O)c1cc2ccccc2o1` was 13.3

Lab note: measured activity of `O=C1c2cccc3cc([N+](=O)[O-])cc(c23)C(=O)N1CCN1CCCC1` was 67.3

Lab note: measured activity of `O=C(Nc1ccc(NC(=O)c2ccccc2F)cn1)c1ccco1` was 58.3

Lab note: measured activity of CC(OC(=O)c1ccc(S(C)(=O)=O)c([N+](=O)[O-])c1)C(=O)NC1C2CC3CC(C2)CC1C3 (stereo not given) was 97.9

Lab note: measured activity of `CCOc1cccc2sc(N(CCCN(C)C)C(=O)c3ccc(S(=O)(=O)N(C)Cc4ccccc4)cc3)nc12` was -0.65

Lab note: measured activity of `COc1ccc(C(=O)Nc2nnc(SCC(=O)NC3CCCC3)s2)c(OC)c1` was 69.8

Lab note: measured activity of COc1ccccc1NC(CC(=O)c1ccccc1)C(=O)OCC(=O)c1ccc(F)cc1 (stereo not given) was 65.9

Lab note: measured activity of `CC(C)c1onc(C(=O)N2CCN(c3ccc(F)cc3)CC2)c1[N+](=O)[O-]` was 87.6

Lab note: measured activity of `CN1CCc2c(sc(NC(=O)c3ccc([N+](=O)[O-])o3)c2C(N)=O)C1` was 95.3

Lab note: measured activity of `CCN1CCN(CCNC(=O)c2ccc3c(c2)N(Cc2ccc(F)cc2)C(=O)/C(=C/c2ccccc2)S3)CC1` was 80.5

Lab note: measured activity of `Cc1ccc(C(=O)Nc2ccc3c(c2)OCO3)cc1` was 63
